tested on: Pseudomonas aeruginosa; test: Antimicrobial activity against Pseudomonas aeruginosa 15159 after 21 hrs by broth microdilution method; type: functional; details: Pseudomonas aeruginosa, 15159, 21 h
endpoint: MIC

Query MIC on Pseudomonas aeruginosa for CC[C@@H](C)[C@@H](NC(=O)[C@H](CCCNC(=N)N)NC(=O)[C@H](CCC(N)=O)NC(=O)[C@@H](NC(=O)[C@H](NC(=O)[C@H](CCCNC(=N)N)NC(=O)[C@H](CCCCN)NC(=O)[C@@H](Cc1ccccc1)NC(=O)[C@H](CCC(=O)O)NC(C)=O)[C@H](C)CC)C(C)C)C(=O)N[C@@H](CCCCN)C(=O)N[C@@H](CC(=O)O)C(=O)N[C@H](Cc1ccccc1)C(=O)N[C@@H](CC(C)C)C(=O)N[C@@H](CCCNC(=N)N)C(=O)N[C@@H](CC(N)=O)C(=O)N[C@@H](CC(C)C)C(=O)N[C@H](C(N)=O)C(C)C > 80 µM
